Please respond with reported apparent KD of MS2 coat protein for every item in the list.
- Test system: MS2 coat protein
- assay-overview: apparent KD of MS2 coat protein; designed switch direction (-1 OFF switch, 1 ON switch): -1; higher = weaker reporter binding
- assay-context: input ligand: FMN 200 uM
Answers are plain numbers, in nM.

Here are 3 sequences together with their reported answers.
Measured apparent KD of MS2 coat protein of GAAACGCGAGGAUAUACAGACGAGUCCAUUACGUGUCUCGGACUUGAGGAUCACCCAAGUAGAAGGCGUCUCAG [salish99_ex2_r4_631] (Eterna round: R97, puzzle: Exclusion 2) : 24.8

Measured apparent KD of MS2 coat protein of GUCCGGCAUGUAGGAUAUGGAUCCGAUUAGGAUUUAGAAGGACAUGAGGAUCACCCAUGUACAUGUAAUUAGUCAUUACCGGAC [EXclNG1-LROPPY02] (Eterna round: R96, puzzle: Exclusion NG 1) : 40.2

Measured apparent KD of MS2 coat protein of UGAUCUAGCGGAGGAUAUACAUGAGGAUCACCCAUGUAUAGGCUAUCUGGUGACAGGUGGAACAUGUAGAAGGCCGCUAGAUCU [JL ENG2 3.80] (Eterna round: R96, puzzle: Exclusion NG 2) : 78.1

Shift focus to the following entry.
Measured apparent KD of MS2 coat protein of AGAGUGCUGCGAGGAUAUACAUGAGGAUCACCCAUGUGGAUCUGUGAGGCUUUGCCUCACAGGAUGUAGAAGGCGCAGUACUCA [Mat - Exclusion NG 2 - Mod of JL - D48] (Eterna round: R96, puzzle: Exclusion NG 2) : 178

###

- Tested on: MS2 coat protein
- assay-overview: apparent KD of MS2 coat protein; designed switch direction (-1 OFF switch, 1 ON switch): -1; higher = weaker reporter binding
- assay-context: Eterna round: R95; input ligand: microRNA oligo, concentration not stated
Answer Condition not met if apparent KD of MS2 coat protein is under 30 nM, and Condition met if it is 30 nM or more.

Consider the worked cases shown below.
Q. For this sequence, is measured apparent KD of MS2 coat protein 30 nM or higher? GGUCUGCGAGGAUAUACAUGAGGAUCACCCAUGUGCGAGUUACUUGUGAGGUCGGUUGGUAGAAGGCGCGGACG [JL-ex3-2.10 salish99 mod] (puzzle: Exclusion 3)
A. Condition met

Q. For this sequence, is measured apparent KD of MS2 coat protein 30 nM or higher? UUUUAACAUGAGGAUCACCCAUGUGAGGAUAUCGAAAUUUAUAUUAAUAUUUUUAUUUCGAGAAGGCACAUUUU [JMF 73] (puzzle: Exclusion 1)
A. Condition met

Q. For this sequence, is measured apparent KD of MS2 coat protein 30 nM or higher? CCGGAUAUGCAGGAUAUCGUAUCGGAUACGAUACGAGAAGGGUAUACAUGAGGAUCACCCAUGUGUCCUACCGG [Mat - Exclusion 6 - Eli Mod - D85] (puzzle: Exclusion 6)
A. Condition not met

Q. For this sequence, is measured apparent KD of MS2 coat protein 30 nM or higher? AAUAACAAGCAAGAUCCUAACAUGAGGAUCACCCAUGUGCUCGUCUUAUAAAGUACUAUCACGAAAGUGAUAGUACA [Sensor 3, v1 - 45] (puzzle: Sensor v3, turn-off variant 1)
A. Condition met

Q. For this sequence, is measured apparent KD of MS2 coat protein 30 nM or higher? AGAAGACAUGAGGAUCACCCAUGUAAGGAUAUCGGAGGUAAGGGAGGAAGGAGAUAGGCGAGAAGGUACAGGUG [JR_Exclu1_Sub093] (puzzle: Exclusion 1)
A. Condition met

Q. For this sequence, is measured apparent KD of MS2 coat protein 30 nM or higher? GAUUAUGCGAGCUUUAGGGACAUGAGGAUCACCCAUGUUCGUCUUAUUGGUCUAGGUGCGCUAACAUACCUAAAUCU [JMF 51] (puzzle: Sensor v3, turn-off variant 1)
A. Condition met

***
Q. For this sequence, is measured apparent KD of MS2 coat protein 30 nM or higher? CUGAGCAGACGGAGAUCCAACAUGAGGAUCACCCAUGUCUCAAAAGCUUUUUGCUCAUCUUAUUGUACCUUGGUGCU [JL ViennaUCT Edcesobi mod 2] (puzzle: Sensor v3, turn-off variant 1)
A. Condition not met

Q. For this sequence, is measured apparent KD of MS2 coat protein 30 nM or higher? UUGUACAUAGGAUAUAGUUGUUUGUACAUGAGGAUCACCCAUGUUAUGUAUCUUUUGCUUCUAGAAGGAUGUUCUU [JR_E5_Sub005] (puzzle: Exclusion 5)
A. Condition met

###

Please respond with reported apparent KD of K4 kissing-loop reporter for every item in the list.
- System: K4 kissing-loop RNA reporter
- assay-overview: apparent KD of K4 kissing-loop reporter; higher = weaker reporter binding
- assay-context: Eterna round: R107; input ligand: tryptophan 2.4 mM
Give bare numbers, in nM.

Here are 2 sequences together with their reported answers.
For the sequence GAGAACUCUUACGAUACCAGCCGGAGUGAUGUUCCGUGCUUGGACGUAGUAACCCGCACCGGCCCUUGGCAGCGUGGAUCCUAUG [Biorar] , the measured apparent KD of K4 kissing-loop reporter on K4 kissing-loop RNA reporter was 74.4

For the sequence GACAAUUCCGCUUCCGAGCAUACUUGACUGAAGGAUAUCAUCGUGUUGAGAAGGUCAGUAACAGAGAGUGAUGUUCUUUGAGGUC [theeternabot_sameState_KL_FMN_A_19] , the measured apparent KD of K4 kissing-loop reporter on K4 kissing-loop RNA reporter was 151

Shift focus to the following entry.
For the sequence AAGUGAUGUUGUAGUGAUGUUGUGAUGUUGCAGGAUAUAUAGUGAUGUAGAAGGGUAAGUACUCAUGUUGUUAGUAAGUGAUGUU [bttutmullin] , the measured apparent KD of K4 kissing-loop reporter on K4 kissing-loop RNA reporter was 74.2

###

- Tested on: MS2 coat protein
- assay-overview: apparent KD of MS2 coat protein, switch OFF state (with FMN for OFF switches, without FMN for ON switches); designed switch direction (-1 OFF switch, 1 ON switch): -1; higher = weaker reporter binding
- assay-context: FMN input: 0 or 200 uM; Eterna round: R93 (includes R88 designs)
Answer n if apparent KD of MS2 coat protein is under 40 nM, and y if it is 40 nM or more.

Consider the worked cases shown below.
Q. For this sequence, is measured apparent KD of MS2 coat protein 40 nM or higher? AAAAAGCGAGGAUAUACUAAAAAACCUCAAAAAAAAAAAAAACAUGAGGAUCACCCAUGUAGAAGGCGCAAAAA [JR_Exc002_Sub001]
A. y

Q. For this sequence, is measured apparent KD of MS2 coat protein 40 nM or higher? ACAUCUAGAGGAUAUACAUGGAAAAAAAAAAAAAAAAAACUACAUGAGGAUCACCCAUGUAGAAGGCUAGAUGA [Ex2 Design 192: Random 12]
A. n

Q. For this sequence, is measured apparent KD of MS2 coat protein 40 nM or higher? AAGAAGUGAGGAUAUCGAAGACAGACGAAAAGUCUGUCAAACGAGAAGGCACAUGAGGAUCACCCAUGUGGAAA [What have we learned so far? 64% 4]
A. n

***
Q. For this sequence, is measured apparent KD of MS2 coat protein 40 nM or higher? AAAAGGGCAGGAUAUGCAUGUUGGCAAAAUUCUCAUCAAACACAUGAGGAUCACCCAUGUAGAAGGGCCAACGG [Inonenonat]
A. y

Q. For this sequence, is measured apparent KD of MS2 coat protein 40 nM or higher? GCUGUGGAAGGAUAUACAUGAGGAUCACCCAUGUGAGAGAAAAAAGUGAGAAAGAAAAGUAGAAGGUCCGUAGG [salish99-ex3-98]
A. y

Q. For this sequence, is measured apparent KD of MS2 coat protein 40 nM or higher? AAAAACCGAGGAUAUACAUGAGGAUCACCCAUGUAAAAAAAAAAAAAGGGAAAAAAAAGUAGAAGGCGGAAAAA [Djehuti Sekhemresementawy]
A. n

Q. For this sequence, is measured apparent KD of MS2 coat protein 40 nM or higher? GAAGAACAUGAGGAUCACCCAUGUCAGGAUAUGCGCAAGGGAAUAAUAACUUGCGGAAGCAGAAGGGACAAGAA [Ex 1 May 50]
A. n

Q. For this sequence, is measured apparent KD of MS2 coat protein 40 nM or higher? ACUUGACAUGAGGAUCACCCAUGUCAGGAUAUAGUAGGACAAAUAAAUAAAAGUUCUACUAGAAGGGAUAUGGG [Design 20: G-U+ 4]
A. n

###

Please respond with reported apparent KD of K4 kissing-loop reporter for every item in the list.
- Test system: K4 kissing-loop RNA reporter;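 note: bound reporter read as fluorescence of individual clusters on recovered sequencing chips by microscopy, with normalized cluster intensities fitted with a binding model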
- assay-overview: apparent KD of K4 kissing-loop reporter; higher = weaker reporter binding
- assay-context: Eterna round: R107; input ligand: FMN 200 uM
Give bare numbers, in nM.

Here are 6 sequences together with their reported answers.
Measured apparent KD of K4 kissing-loop reporter of CGCAAUAUUACGGAGUGAUGUUUCGUAGUCCGAGGACCGGUACGGCCGCCACUCGCUGGCGUUGGCCCAUAGACCGACGGAAUCG [theeternabot_sameState_KL_Trp_A_39] : 246

Measured apparent KD of K4 kissing-loop reporter of UGGGCUGCCUGAGGAUAUAGAGACGAGUGAUGUUCGUGGAUAAGAGCCAGUGAUGUUGGGUUAUUUCUAGAAGGCGGGCGAACUU [Exclusion FMN B GF8] : 105

Measured apparent KD of K4 kissing-loop reporter of UACUAUAGUGAUGUUAUAGAUAAACCAGAUACCAGUGUAACAUAACACCCUUGGCAGCUGAUGAGGGAACAUAUGAAUGCAUAUG [AstrosSSTHe-A#5newdesignED5.11] : 196

Measured apparent KD of K4 kissing-loop reporter of GGUGACGGCCAGGAGUGAUGUAUAGAAUAGCGAGGACCGGUACGGCCGCCACUCGUGAAGAAAAGGGAGUGAUGUUCCGUAAUGG [Kazoo B] : 380

Measured apparent KD of K4 kissing-loop reporter of GCUAUGGUAGGAAGGAGCGCUUACUCAUUAAUAAGAGUGAUGUUCGAUAAUGAGUAUUUAUAGCAGGUAGGUCGCCUACUAUAGC [Arginine B K4 3] : 280

Measured apparent KD of K4 kissing-loop reporter of GACAACAGGGUGAGACUCACGGCGCCAGAAGGAGCGGUGAUUCCACCAGGUAGGUCGCUGGCCCAGUGAUGUUGGGCUUUGUGUC [Onoran] : 129

I would be grateful if you could provide apparent KD of K4 kissing-loop reporter for each of the following entries.
1. GGCGCAGUGAUGUUGCGGGCCGAGAGUGAUACCAGCCGUAUUUGUGGCCCUUGGCAGCGCAGAACCAGUGAUGUUGGUUACUUGG [Same State Theophylline A GF 22]
2. AAAAUAAAUAGCAGUCAUGGAGUGAUGUUCCGAGGACCGGUACGGCCGCCACUCGACCAUCAUAAGAUGGAUGGCGAAGACUGCA [#SwitchBubble 24 #K4Early]

A.
223
515
